Each item that follows carries a reported inhibition at 10 µM.
- measurement-target: BTK (Homo sapiens)
- Sequence (Q06187 402-655 limits assumed): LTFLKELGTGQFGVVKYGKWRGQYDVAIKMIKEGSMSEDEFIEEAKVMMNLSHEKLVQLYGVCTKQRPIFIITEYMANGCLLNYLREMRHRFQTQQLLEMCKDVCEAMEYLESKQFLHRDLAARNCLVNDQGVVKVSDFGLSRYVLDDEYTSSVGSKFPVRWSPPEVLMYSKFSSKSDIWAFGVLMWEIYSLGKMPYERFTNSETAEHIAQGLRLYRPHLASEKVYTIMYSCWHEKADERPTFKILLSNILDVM
- experimental-details: biochemical
- run-parameters: read-out: BTK inhibition (%), 0.75 uM BTK, […] probe 3l, 15 min preincubation

| chemical-structure | inhibition at 10 µM (%) |
| --- | --- |
| CC(C)(C)Cn1c(N)nc2ccc(-c3[nH]c(C(C)(C)C)nc3-c3ccc(F)cc3)nc21 | -5.1 |
| COC(=O)[C@H](c1ccccc1Cl)N1CCc2sccc2C1 | 2.3 |
| CC1(C)CCC[C@](C)([C@H]2CC[C@]3(C)[C@@H]2[C@H](O)C[C@@H]2[C@@]4(C)CC[C@H](O)C(C)(C)[C@@H]4[C@H](O)C[C@]23C)O1 | -2.8 |
| O=C1Nc2ccccc2C1=O | 11.7 |
